The measurements presented in this section are drawn from patent US20130345214A1.

Record form. Attribute: activity at 5 µM. Fill in for each entry.
Test system: amyloid-beta (Abeta) formation
assay_details: secreted Abeta40/Abeta42 ELISA in N2A-APPswe cells
Type: cell-based
assay_setup: Mus musculus, 24 hours treatment, read-out: Abeta 40 formation (% of control)
Procedure: A neuronal cell-based screening assay capable of sensitive and selective detection of secreted Aβ40 and Aβ42 was established. […] The transfected cells were selected in G418-containing medium, and single colonies were analyzed for the expression of APPswe. […] Levels of secreted Aβ40 and Aβ42 in the medium can be quantified by ELISA kits. […]
Report only the number, with the unit % understood.

Q: Suppose we examine the compound Fc1ccc2[nH]c3c(OC4CCNC4)c4[nH]c5ccc(F)cc5c4cc3c2c1 (centres unmarked) [drawing 29] ; what activity at 5 µM value has been reported?
A: 71

Q: Suppose we examine the compound Clc1ccc2[nH]c3c(OCC4CCCN4)c4[nH]c5ccc(Cl)cc5c4cc3c2c1 (centres unmarked) [drawing 30] ; what activity at 5 µM value has been reported?
A: 69

Q: Suppose we examine the compound Nc1nnnn1CCOc1c2[nH]c3ccc(Cl)cc3c2cc2c1[nH]c1ccc(Cl)cc12 [drawing 27] ; what activity at 5 µM value has been reported?
A: 81

Q: Suppose we examine the compound CN(C)CCOc1c2[nH]c3ccc(F)cc3c2c(Cl)c2c1[nH]c1ccc(F)cc12 [drawing 33] ; what activity at 5 µM value has been reported?
A: 68

Q: Suppose we examine the compound N=C(N)NCCCOc1c2[nH]c3ccc(F)cc3c2cc2c1[nH]c1ccc(F)cc12 [drawing 28] ; what activity at 5 µM value has been reported?
A: 82

Q: Suppose we examine the compound CN(C)CCOc1c2[nH]c3ccc(F)cc3c2cc2c1[nH]c1ccc(F)cc12 [drawing 24] ; what activity at 5 µM value has been reported?
A: 79

Q: Suppose we examine the compound "Fc1ccc2[nH]c3c(C(F)(F)F)c4[nH]c5ccc(F)cc5c4cc3c2c1" ; what activity at 5 µM value has been reported?
A: 81

Q: Suppose we examine the compound "Fc1ccc2[nH]c3c(OCCN4CCCCC4)c4[nH]c5ccc(F)cc5c4cc3c2c1" ; what activity at 5 µM value has been reported?
A: 82

###

tgt: 15-LOX-2 (Homo sapiens)
Sequence (O15296 whole entry, species assumed): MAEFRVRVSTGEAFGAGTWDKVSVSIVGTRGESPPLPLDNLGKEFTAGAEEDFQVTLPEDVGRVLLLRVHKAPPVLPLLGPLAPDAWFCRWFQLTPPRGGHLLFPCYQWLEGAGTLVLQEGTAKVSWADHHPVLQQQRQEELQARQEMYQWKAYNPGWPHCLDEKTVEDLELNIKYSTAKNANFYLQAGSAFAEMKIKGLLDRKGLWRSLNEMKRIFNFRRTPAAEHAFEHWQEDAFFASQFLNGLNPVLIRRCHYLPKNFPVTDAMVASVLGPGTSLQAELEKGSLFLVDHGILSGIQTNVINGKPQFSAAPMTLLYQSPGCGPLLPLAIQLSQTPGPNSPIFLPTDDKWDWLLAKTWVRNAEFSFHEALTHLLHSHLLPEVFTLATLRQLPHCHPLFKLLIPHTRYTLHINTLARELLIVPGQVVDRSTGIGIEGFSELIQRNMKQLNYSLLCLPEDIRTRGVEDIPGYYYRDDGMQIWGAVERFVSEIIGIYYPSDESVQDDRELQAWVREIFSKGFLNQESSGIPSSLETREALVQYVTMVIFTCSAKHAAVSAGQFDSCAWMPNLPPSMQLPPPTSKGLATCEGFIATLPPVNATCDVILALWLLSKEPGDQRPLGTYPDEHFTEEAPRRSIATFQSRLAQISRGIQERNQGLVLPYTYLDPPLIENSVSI
assay_details: in vitro 15-LOX-2 inhibition (Table 3)
Format: biochemical
Binned inhibition at 3 µM; ranges: band 1 = under 40%, band 2 = from 40% up to 50%, band 3 = 50% and over

Q: Which inhibition at 3 µM category applies to N=C(N)NCCCOc1c2[nH]c3ccc(F)cc3c2cc2c1[nH]c1ccc(F)cc12 [drawing 11] here?
A: band 3

Q: Which inhibition at 3 µM category applies to CCOC(=O)c1ccc2[nH]c3c(O[C@H]4CCNC4)c4[nH]c5ccc(C(=O)OCC)cc5c4cc3c2c1 [drawing 20] here?
A: band 1

Q: Which inhibition at 3 µM category applies to CN(C)CCOc1c2[nH]c3ccc(F)cc3c2c(Cl)c2c1[nH]c1ccc(F)cc12 [drawing 18] here?
A: band 1

Q: Which inhibition at 3 µM category applies to CN(C)CCOc1c2[nH]c3ccc(F)cc3c2cc2c1[nH]c1ccc(F)cc12 [drawing 7] here?
A: band 2

Q: Which inhibition at 3 µM category applies to "Fc1ccc2[nH]c3c(OC[C@@H]4CCCN4)c4[nH]c5ccc(F)cc5c4cc3c2c1" here?
A: band 3

Q: Which inhibition at 3 µM category applies to Clc1ccc2[nH]c3c(OCC4CCCN4)c4[nH]c5ccc(Cl)cc5c4cc3c2c1 (stereo not shown) [drawing 13] here?
A: band 2

Q: Which inhibition at 3 µM category applies to Fc1ccc2[nH]c3c(OCC4CCCN4)c4[nH]c5ccc(F)cc5c4c(C(F)(F)F)c3c2c1 (stereo not shown) [drawing 17] here?
A: band 1

Q: Which inhibition at 3 µM category applies to Fc1ccc2[nH]c3c(OCC4CCCN4)c4[nH]c5ccc(F)cc5c4cc3c2c1 (stereo not shown) [drawing 14] here?
A: band 3
